Experiment: Mixed-type inhibition of yeast alpha-glucosidase assessed as enzyme-substrate-inhibitor dissociation constant using varying levels of pNP-alpha-G as substrate incubated for 30 mins and measured at 1 min interval for 30 mins by Lineweaver-burk plot analysis
Set-up: species or system Saccharomyces cerevisiae
observation type: Ki (µM)
Give a bare numeral; the unit µM is implied.

Query: Give the reported value of Ki for this record: `CN1CCN(CCNC(=O)[C@@H](Cc2ccc(O)c(O)c2)OC(=O)/C=C/c2ccc(O)c(O)c2)CC1`
Reply: 34.8

====

Assay: Mixed-type inhibition of yeast alpha-glucosidase assessed as […] dissociation constant using varying levels of pNP-alpha-G as substrate incubated for 30 mins and measured at 1 min interval for 30 mins by Lineweaver-burk plot analysis
Parameters: species or system Saccharomyces cerevisiae
observation type: Ki (µM)
Give a bare numeral; the unit µM is implied.

Query: Give the reported value of Ki for this record: `CN1CCN(CCNC(=O)[C@@H](Cc2ccc(O)c(O)c2)OC(=O)/C=C/c2ccc(O)c(O)c2)CC1`
Reply: 22.8

====

Assay: Antioxidant activity assessed as DPPH radical scavenging activity incubated for 1.5 hrs under dark condition by spectrometric method
Type: functional
Binarize IC50 at 9 µM; below is 1, at or above is 0.

Query: Does `CN(C)CCCNC(=O)[C@@H](Cc1ccc(O)c(O)c1)OC(=O)/C=C/c1ccc(O)c(O)c1` have IC50 strictly under 9 µM?
Reply: 0

Query: Does `O=C(/C=C/c1ccc(O)c(O)c1)O[C@H](Cc1ccc(O)c(O)c1)C(=O)NCc1ccccc1` have IC50 strictly under 9 µM?
Reply: 1

Query: Does `O=C(/C=C/c1ccc(O)c(O)c1)O[C@H](Cc1ccc(O)c(O)c1)C(=O)NCCc1ccccc1` have IC50 strictly under 9 µM?
Reply: 0

Query: Does `CCCCNC(=O)[C@@H](Cc1ccc(O)c(O)c1)OC(=O)/C=C/c1ccc(O)c(O)c1` have IC50 strictly under 9 µM?
Reply: 1

====

Assay: Antioxidant activity assessed as DPPH radical scavenging activity incubated for 1.5 hrs under dark condition by spectrometric method
Format: functional
observation type: pIC50
Please note pIC50 is a logarithmic value: minus log10 of concentration in mol/L. Answer with that number alone.

Query: Give the reported value of pIC50 for this record: `CN1CCN(CCNC(=O)[C@@H](Cc2ccc(O)c(O)c2)OC(=O)/C=C/c2ccc(O)c(O)c2)CC1`
Reply: 5.01

Query: Give the reported value of pIC50 for this record: `O=C(/C=C/c1ccc(O)c(O)c1)O[C@H](Cc1ccc(O)c(O)c1)C(=O)NCCN1CCCCC1`
Reply: 5.00

Query: Give the reported value of pIC50 for this record: `O=C(/C=C/c1ccc(O)c(O)c1)O[C@H](Cc1ccc(O)c(O)c1)C(=O)O`
Reply: 4.96

Query: Give the reported value of pIC50 for this record: `Cc1ccc(CNC(=O)[C@@H](Cc2ccc(O)c(O)c2)OC(=O)/C=C/c2ccc(O)c(O)c2)cc1`
Reply: 5.00

====

Experiment: Antioxidant activity assessed as DPPH radical scavenging activity incubated for 1.5 hrs under dark condition by spectrometric method
Assay type: functional
observation type: pIC50
Please note pIC50 is a logarithmic value: minus log10 of concentration in mol/L. Answer with that number alone.

Query: Give the reported value of pIC50 for this record: `O=C(/C=C/c1ccc(O)c(O)c1)O[C@H](Cc1ccc(O)c(O)c1)C(=O)NCCc1ccc(O)cc1`
Reply: 5.15

Query: Give the reported value of pIC50 for this record: `CC(C)CNC(=O)[C@@H](Cc1ccc(O)c(O)c1)OC(=O)/C=C/c1ccc(O)c(O)c1`
Reply: 4.92
